The following molecules have recorded Ki on UniProt P22303.
Sequence (P22303 whole entry): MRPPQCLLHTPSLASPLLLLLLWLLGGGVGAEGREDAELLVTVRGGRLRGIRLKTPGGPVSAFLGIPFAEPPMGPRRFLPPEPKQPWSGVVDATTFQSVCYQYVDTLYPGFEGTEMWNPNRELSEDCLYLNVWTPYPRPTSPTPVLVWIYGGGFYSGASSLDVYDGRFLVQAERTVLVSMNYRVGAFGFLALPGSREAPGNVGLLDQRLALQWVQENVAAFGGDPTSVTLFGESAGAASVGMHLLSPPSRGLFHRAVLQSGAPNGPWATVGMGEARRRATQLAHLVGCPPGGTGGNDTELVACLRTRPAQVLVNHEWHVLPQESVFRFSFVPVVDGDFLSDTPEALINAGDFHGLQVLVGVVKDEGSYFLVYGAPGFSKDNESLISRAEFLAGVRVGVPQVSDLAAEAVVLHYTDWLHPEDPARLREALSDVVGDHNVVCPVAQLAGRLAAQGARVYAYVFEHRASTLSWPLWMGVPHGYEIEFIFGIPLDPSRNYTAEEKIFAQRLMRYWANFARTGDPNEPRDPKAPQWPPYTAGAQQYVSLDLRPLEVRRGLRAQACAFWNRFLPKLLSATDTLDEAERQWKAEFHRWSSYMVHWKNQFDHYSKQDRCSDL
Answers are plain numbers, in µM.

Nc1c2c(nc3ccccc13)-c1ccccc1C2 ... 0.21

Kindly state the measured Ki obtained for c1ccc(CNc2c3c(nc4ccccc24)-c2ccccc2C3)cc1 with UniProt P22303.
7.5

----------
System: UniProt:P22303
Categories are defined by ranges of IC50, namely low = under 4 µM, medium = from 4 µM up to 6 µM, high = 6 µM and over

The examples below pair each entry with its known result.
COc1ccc2c(c1)-c1nc3ccccc3c(N)c1C2 ... medium
CCCCCCCNc1c2c(nc3ccccc13)-c1ccccc1C2 ... medium
Cc1ccc2c(c1)-c1nc3ccccc3c(N)c1C2 ... medium
Nc1c2c(nc3ccccc13)-c1ccc(Cl)cc1C2 ... medium
Nc1c2c(nc3cc(Cl)ccc13)-c1ccccc1C2 ... high
Nc1c2c(nc3ccccc13)-c1ccc(F)cc1C2 ... low

Hey, which category is Nc1ccc2c(N)c3c(nc2c1)-c1ccccc1C3 [11H-Indeno-[1,2-b]-quinolin-7,10-diamine] in, do you know?
high

Hey, which category is COc1cccc2c1Cc1c-2nc2ccccc2c1N in, do you know?
low

Hey, which category is CNc1c2c(nc3ccccc13)-c1ccccc1C2 in, do you know?
low

Hey, which category is Nc1c2c(nc3cc(F)ccc13)-c1ccccc1C2 in, do you know?
low
